Record form. Attribute: inhibition at 48 h, 200 µM. Fill in for each entry.
- Assay Text: Test II Cellular toxicity on F5000 cells (cell number after 48 h)
- Format: cell-based, human
- Details: human, 200 μM, read-out: % inhibition of cell multiplication, F 5000
Give bare numbers, in %.

Consider the following illustrative entries.
1) O=c1[nH]c(=O)n([C@H]2C[C@H](O)[C@@H](CO)O2)cc1-c1cc[se]c1	0
2) O=c1[nH]c(=O)n([C@H]2C[C@H](O)[C@@H](CO)O2)cc1-c1ccco1	0
3) O=c1[nH]c(=O)n([C@@H]2C[C@H](O)[C@@H](CO)O2)cc1-c1cc[se]c1	30

inhibition at 48 h, 200 µM for O=c1[nH]c(=O)n([C@@H]2C[C@H](O)[C@@H](CO)O2)cc1-c1ccc[se]1 ?
15

###

- Assay Text: Test II Cellular toxicity on F5000 cells (cell number after 48 h)
- Assay type: cell-based, human
- Details: human, 100 μM, read-out: % inhibition of cell multiplication, F 5000
Assay Readout: inhibition at 48 h, 100 µM

Give the measured inhibition at 48 h, 100 µM of O=c1[nH]c(=O)n([C@@H]2C[C@H](O)[C@@H](CO)O2)cc1-c1cccs1 .
0 to 35%

###

Measured IC50 (Herpes simplex virus type 2 DNA polymerase (Human herpesvirus 2, UniProt P89453))
One number for each entry, in µM.

1. O=c1[nH]c(=O)n([C@H]2C[C@H](O)[C@@H](COP(=O)(O)OP(=O)(O)OP(=O)(O)O)O2)cc1-c1cccs1	0.06

Please examine the following record next.
Which IC50 is listed for O=c1[nH]c(=O)n([C@@H]2C[C@H](O)[C@@H](COP(=O)(O)OP(=O)(O)OP(=O)(O)O)O2)cc1-c1cccs1 ?
11

###

- Assay Target: Human immuno deficiency virus reverse transcriptase (Human immunodeficiency virus type 1 group M subtype B, UniProt P04585)
Assay Readout: IC50 (nM)
Give bare numbers, in nM.

1. O=c1[nH]c(=O)n([C@H]2C[C@H](O)[C@@H](COP(=O)(O)OP(=O)(O)OP(=O)(O)O)O2)cc1-c1cccs1	15

Continue with the compound presented below.
Which IC50 value belongs to O=c1[nH]c(=O)n([C@@H]2C[C@H](O)[C@@H](COP(=O)(O)OP(=O)(O)OP(=O)(O)O)O2)cc1-c1cccs1 ?
2000

###

- Assay Text: Test II Cellular toxicity on H9 cells (cell number after 48 h)
- Assay type: cell-based
- Details: human, 250 μM, read-out: % inhibition of cell multiplication, H9
Assay Readout: inhibition at 48 h, 250 µM (%)
Give bare numbers, in %.

I would be grateful if you could share the reported inhibition at 48 h, 250 µM for O=c1[nH]c(=O)n([C@@H]2C[C@H](O)[C@@H](CO)O2)cc1-c1cccs1 .
35

###

- Assay Target: UniProt P09884
- Sequence (P09884 1-1462): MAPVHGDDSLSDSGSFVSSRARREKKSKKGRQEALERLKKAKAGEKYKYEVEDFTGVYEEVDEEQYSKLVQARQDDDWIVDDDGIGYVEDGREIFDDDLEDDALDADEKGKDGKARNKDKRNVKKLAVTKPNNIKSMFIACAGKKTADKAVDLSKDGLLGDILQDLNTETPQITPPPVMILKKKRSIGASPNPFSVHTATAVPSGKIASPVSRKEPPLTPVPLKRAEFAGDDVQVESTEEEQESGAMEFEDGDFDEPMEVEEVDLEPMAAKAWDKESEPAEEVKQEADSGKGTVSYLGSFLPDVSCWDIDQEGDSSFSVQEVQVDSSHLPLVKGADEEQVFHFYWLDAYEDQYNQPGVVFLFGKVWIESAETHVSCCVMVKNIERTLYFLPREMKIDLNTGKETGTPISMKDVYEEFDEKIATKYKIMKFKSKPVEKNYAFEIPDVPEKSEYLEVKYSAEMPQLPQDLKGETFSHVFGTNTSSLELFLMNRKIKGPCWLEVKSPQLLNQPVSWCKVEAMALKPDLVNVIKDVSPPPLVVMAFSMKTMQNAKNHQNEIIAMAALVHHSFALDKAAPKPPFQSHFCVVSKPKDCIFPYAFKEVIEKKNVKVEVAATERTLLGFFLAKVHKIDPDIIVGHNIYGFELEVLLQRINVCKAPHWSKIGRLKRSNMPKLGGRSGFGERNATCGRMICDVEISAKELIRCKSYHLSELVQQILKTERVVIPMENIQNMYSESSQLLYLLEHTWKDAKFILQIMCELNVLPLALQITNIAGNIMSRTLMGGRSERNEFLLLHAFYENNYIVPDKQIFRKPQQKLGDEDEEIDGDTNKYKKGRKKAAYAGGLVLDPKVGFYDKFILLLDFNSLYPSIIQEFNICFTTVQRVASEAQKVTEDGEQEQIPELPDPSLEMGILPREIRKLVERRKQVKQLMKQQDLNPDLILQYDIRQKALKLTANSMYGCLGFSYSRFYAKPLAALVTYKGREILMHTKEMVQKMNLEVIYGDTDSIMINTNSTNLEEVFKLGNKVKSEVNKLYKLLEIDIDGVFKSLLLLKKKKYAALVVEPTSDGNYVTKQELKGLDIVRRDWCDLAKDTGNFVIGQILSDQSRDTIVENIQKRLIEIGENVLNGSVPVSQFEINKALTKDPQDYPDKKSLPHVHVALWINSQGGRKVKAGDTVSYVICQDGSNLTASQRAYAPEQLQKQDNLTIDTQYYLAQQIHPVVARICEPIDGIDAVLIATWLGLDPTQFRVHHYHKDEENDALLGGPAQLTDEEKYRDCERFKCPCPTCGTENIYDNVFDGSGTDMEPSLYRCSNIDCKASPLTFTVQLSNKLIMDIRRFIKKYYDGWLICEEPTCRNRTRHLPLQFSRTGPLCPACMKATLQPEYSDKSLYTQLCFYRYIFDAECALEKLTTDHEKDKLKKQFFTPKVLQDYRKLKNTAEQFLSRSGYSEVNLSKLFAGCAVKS
- Assay Text: Test III Inhibition of cellular DNA polymerase alpha by triphosphates
- Details: cellular DNAPα; read-out: Concentration for 50% inhibition (IC50) of DNAPα
Assay Readout: pIC50
Numbers only, as −log10 of the molar value.

1. O=c1[nH]c(=O)n([C@@H]2C[C@H](O)[C@@H](COP(=O)(O)OP(=O)(O)OP(=O)(O)O)O2)cc1-c1cccs1	4.10

Please examine the following record next.
Data request, read-out pIC50, for O=c1[nH]c(=O)n([C@H]2C[C@H](O)[C@@H](COP(=O)(O)OP(=O)(O)OP(=O)(O)O)O2)cc1-c1cccs1
5.80
